testedSystem: T1, GST–ETV1(249–477) fusion protein (UniProt P50549 249-477)
T1 construct: ETV1, C-terminal half, residues 249-477; In the MST it was labelled through an anti-GST mouse mAb coupled to Alexa Fluor 647; also called fusion between GST and the C-terminal half of ETV1 (aa 249–477); source: E. coli, purified
T1 sequence (looked up): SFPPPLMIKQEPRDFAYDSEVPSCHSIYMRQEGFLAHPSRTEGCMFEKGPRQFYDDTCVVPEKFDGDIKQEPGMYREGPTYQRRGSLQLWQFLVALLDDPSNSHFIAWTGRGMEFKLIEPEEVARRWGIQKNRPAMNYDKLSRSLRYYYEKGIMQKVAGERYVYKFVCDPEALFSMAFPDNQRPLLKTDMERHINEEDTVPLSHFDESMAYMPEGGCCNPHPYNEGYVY
measurementNotes: MST; Monolith NT.115; 15 serial dilutions of peptide (starting concentration 50 μM) against 300 nM GST–ETV1(249–477) with 20 nM anti-GST mouse mAb coupled to Alexa Fluor 647; PBS with 0.05% Tween-20
conditionsUsed: both partners purified
Ends that are not written are not given here.
readout: Kd (µM)

INSERT INTO results (binder, assayresult) VALUES
  ('VNPASVGGRLVFSGSKKKSSSSLGSGSSRDSIS-NH2 (peptide, UniProt O75164 490-522, looked up, JMJD2A/KDM4A, human, residues 490-522; also called JMJD2A aa 490–522 peptide; source: synthetic peptide (GenScript)) [unmethylated (WT) peptide spanning JMJD2A aa 490–522]', 25.4);
